System: TK-10 renal
Experiment: NCI tumour cell line growth inhibition, 48 h
assay.metric: TGI

Query: Recorded TGI of CCCCCC(=O)CCCCCCCC(O)CC(=O)OCC (configuration not stated) , please.
Result: > 100 µM

Query: And for Fc1ccc(C(=C2CCN(CCc3ccc4[nH]c(=S)[nH]c4c3)CC2)c2ccc(F)cc2)cc1 ?
Result: 4.74 µM

Query: And for COc1cccc2cc(C(=O)O)c(=O)oc12 ?
Result: > 100 µM

Query: And for Ic1cccc(/C=C/CN2CCN(CCOC(c3ccccc3)c3ccccc3)CC2)c1 ?
Result: 31.6 µM

Query: And for O=C1NC(=NCCc2cccc(Cl)c2)S/C1=C\c1ccc2ncccc2c1 ?
Result: > 25 µM

Query: And for CCn1sc2ccccc2c1=O ?
Result: 30.9 µM

Query: And for N#CC(C(=O)C(=O)Nc1ccc(Cl)cc1)c1ccccc1 (configuration not stated) ?
Result: > 100 µM

Query: And for CC(=O)N(CCc1ccccc1)C(C#N)c1ccccc1 (configuration not stated) ?
Result: > 100 µM

Query: And for Cc1cc(C)c(NC(=O)c2sc3nc4c(cc3c2N)CN(Cc2ccccc2)CC4)c(C)c1 ?
Result: > 100 µM

Query: And for CN(C)CC1CCC/C(=C\c2ccc(Cl)cc2)C1=O (configuration not stated) ?
Result: 10 µM

Query: And for CC1COC(C)(C)P(=O)(c2ccccc2)C1 (configuration not stated) ?
Result: > 100 µM

Query: And for O=C(O)C1C2C=CC(C2)C1c1ccccc1 (configuration not stated) ?
Result: > 100 µM
